Kindly state inhibition for each of the entries shown.
Molecular target: Quinolone resistance protein NorA (Staphylococcus aureus)
Experiment: Inhibition of NorA in Staphylococcus aureus 1199B harboring grlA A116E mutant assessed as inhibition of ethidium bromide efflux at 50 uM measured for 5 mins by fluorometric analysis relative to control

Before answering, review these 5 worked examples.
CCCOc1ccc(-c2cc(OCCN3CCc4ccccc4C3)c3ccccc3n2)cc1	67.9%
CCCOc1ccc(-c2cc(OCCN3CCN(Cc4ccccc4)CC3)c3ccccc3n2)cc1	81.2%
CCCOc1ccc(-c2cc(OCCN3CCC4(CC3)OCCO4)c3ccccc3n2)cc1	80.4%
CCCOc1ccc(-c2cc(OC3CN4CCC3CC4)c3ccccc3n2)cc1 (stereo unspecified)	91.3%
CCCOc1ccc(-c2cc(OCCn3cccc3)c3ccccc3n2)cc1	4.1%

Parameters: items (list). Returns: inhibition for each item.
1. CCCOc1ccc(-c2cc(OCCN3CCSCC3)c3ccccc3n2)cc1
2. CCCOc1ccc(-c2cc(OCCN)c3ccccc3n2)cc1

57.7%
96.1%

Parameters: items (list). Returns: inhibition for each item.
1. CCCOc1ccc(-c2cc(OCCN3CCCC3)c3ccccc3n2)cc1
2. CCCOc1ccc(-c2cc(OCCN3CCN(C)CC3)c3ccccc3n2)cc1

["94.2%", "91%"]

Parameters: items (list). Returns: inhibition for each item.
1. CCCOc1ccc(-c2cc(OCCN(C)C)c3ccccc3n2)cc1
2. Fc1ccc([C@H]2CCNC[C@@H]2COc2ccc3c(c2)OCO3)cc1

1: 92%; 2: 85%

* * *

Kindly state MIC for each of the entries shown.
System: Staphylococcus aureus
Assay: Antibacterial activity against wild type Staphylococcus aureus ATCC 25923 assessed as growth inhibition by microdilution method
Format: functional

Before answering, review these 7 worked examples.
CCCOc1ccc(-c2cc(OCCN3CCCCCC3)c3ccccc3n2)cc1	> 100 µg/mL
CCCOc1ccc(-c2cc(OCCN3CCN(Cc4ccccc4)CC3)c3ccccc3n2)cc1	> 100 µg/mL
CCCOc1ccc(-c2cc(OCCN(C(C)C)C(C)C)c3ccccc3n2)cc1	> 100 µg/mL
O=C(O)c1cn(C2CC2)c2cc(N3CCNCC3)c(F)cc2c1=O	0.31 µg/mL
CCCOc1ccc(-c2cc(OCCCN(C)C)c3ccccc3n2)cc1.Cl	> 100 µg/mL
CCCOc1ccc(-c2cc(OCCN(CC)CC)c3ccccc3n2)cc1	100 µg/mL
CCCOc1ccc(-c2cc(OCCN3CCNCC3)c3ccccc3n2)cc1	> 100 µg/mL

The record that follows has no MIC shown yet.
Note to self: MIC recorded for "COC(=O)[C@H]1[C@H]2C[C@@H]3c4[nH]c5cc(OC)ccc5c4CCN3C[C@H]2C[C@@H](OC(=O)c2cc(OC)c(OC)c(OC)c2)[C@@H]1OC" was > 100 µg/mL

* * *

Target: Quinolone resistance protein NorA (Staphylococcus aureus)
Sequence (whole entry): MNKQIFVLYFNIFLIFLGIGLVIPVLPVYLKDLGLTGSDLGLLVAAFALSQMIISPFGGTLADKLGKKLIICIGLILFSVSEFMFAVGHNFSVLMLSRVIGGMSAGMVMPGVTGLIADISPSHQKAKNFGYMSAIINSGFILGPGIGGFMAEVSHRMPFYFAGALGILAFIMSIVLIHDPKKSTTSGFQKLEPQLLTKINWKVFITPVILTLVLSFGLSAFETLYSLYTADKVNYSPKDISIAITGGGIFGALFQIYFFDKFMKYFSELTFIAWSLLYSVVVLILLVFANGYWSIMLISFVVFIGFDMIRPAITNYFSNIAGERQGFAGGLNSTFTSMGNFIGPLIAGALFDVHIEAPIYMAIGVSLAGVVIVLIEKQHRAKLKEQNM
Assay: Inhibition of NorA in Staphylococcus aureus 1199B harboring grlA A116E mutant assessed as inhibition of ethidium bromide efflux at 50 uM measured for 5 mins by fluorometric analysis relative to control
Kindly state inhibition for each of the entries shown.
Numbers only, in %.

Before answering, review these 4 worked examples.
CCCOc1ccc(-c2cc(OCCN(Cc3ccccc3)Cc3ccccc3)c3ccccc3n2)cc1	0
CCCOc1ccc(-c2cc(OCCN3C(=O)c4ccccc4C3=O)c3ccccc3n2)cc1	8.3
CCCOc1ccc(-c2cc(OCCC(C)C)c3ccccc3n2)cc1	33.2
CCCOc1ccc(-c2cc(OCCN3CCOCC3)c3ccccc3n2)cc1	86.9

The record that follows has no inhibition shown yet.
Note to self: inhibition recorded for "CCCOc1ccc(-c2cc(OCCN3CCNCC3)c3ccccc3n2)cc1" was 93.4

* * *

Target: Quinolone resistance protein NorA (Staphylococcus aureus)
Experiment: Inhibition of NorA in Staphylococcus aureus 1199B harboring grlA A116E mutant assessed as inhibition of ethidium bromide efflux measured for 5 mins by fluorometric analysis
measured-parameter: pIC50
Give bare numbers, as −log10 of the molar value.

Before answering, review these 3 worked examples.
CCCOc1ccc(-c2cc(OCCN3CCC4(CC3)OCCO4)c3ccccc3n2)cc1	5.07
CCCCN(CCCC)CCOc1cc(-c2ccc(OCCC)cc2)nc2ccccc12	5.04
COC(=O)[C@H]1[C@H]2C[C@@H]3c4[nH]c5cc(OC)ccc5c4CCN3C[C@H]2C[C@@H](OC(=O)c2cc(OC)c(OC)c(OC)c2)[C@@H]1OC	5.04

Note to self: pIC50 recorded for "CCCOc1ccc(-c2cc(OCCCN(C)C)c3ccccc3n2)cc1.Cl" was 5.41

* * *

Target: Quinolone resistance protein NorA (Staphylococcus aureus, UniProt P0A0J7)
Assay: Inhibition of NorA in Staphylococcus aureus 1199B harboring grlA A116E mutant assessed as inhibition of ethidium bromide efflux measured for 5 mins by fluorometric analysis
pIC50: −log10 of the molar value.
Class T: pIC50 at least 5. Class F: pIC50 below 5.

These solved cases illustrate the format of a correct answer.
CCCOc1ccc(-c2cc(OCCN3CCCCCC3)c3ccccc3n2)cc1	T
CCCOc1ccc(-c2cc(OC3CN4CCC3CC4)c3ccccc3n2)cc1 (stereo unspecified)	F

Let us examine a further case.
For this compound, is measured pIC50 5 or higher? "CCCOc1ccc(-c2cc(OCCN3CCN(Cc4ccccc4)CC3)c3ccccc3n2)cc1" T

* * *

Target: Quinolone resistance protein NorA (Staphylococcus aureus) (UniProt P0A0J7)
Sequence (whole entry): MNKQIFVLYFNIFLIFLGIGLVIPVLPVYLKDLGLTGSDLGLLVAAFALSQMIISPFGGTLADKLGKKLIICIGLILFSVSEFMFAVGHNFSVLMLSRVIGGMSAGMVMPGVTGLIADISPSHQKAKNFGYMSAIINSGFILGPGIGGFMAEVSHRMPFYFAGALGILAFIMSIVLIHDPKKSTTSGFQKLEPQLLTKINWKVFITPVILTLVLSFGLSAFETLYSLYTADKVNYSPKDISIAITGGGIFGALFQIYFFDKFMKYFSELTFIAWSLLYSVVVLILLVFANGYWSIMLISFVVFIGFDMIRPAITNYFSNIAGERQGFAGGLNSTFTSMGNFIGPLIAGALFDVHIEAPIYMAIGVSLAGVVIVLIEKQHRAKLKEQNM
Experiment: Inhibition of NorA in Staphylococcus aureus 1199B harboring grlA A116E mutant assessed as inhibition of ethidium bromide efflux at 50 uM measured for 5 mins by fluorometric analysis relative to control
measured-parameter: inhibition (%)
Numbers only, in %.

Before answering, review these 5 worked examples.
CCCCN(CCCC)CCOc1cc(-c2ccc(OCCC)cc2)nc2ccccc12	88.6
CCCOc1ccc(-c2cc(OCCN(C(C)C)C(C)C)c3ccccc3n2)cc1	88.2
CCCOc1ccc(-c2cc(OCc3ccccn3)c3ccccc3n2)cc1	19.6
CCCOc1ccc(-c2cc(OCCN(CC)Cc3ccccc3)c3ccccc3n2)cc1	72.5
CCCOc1ccc(-c2cc(OC3CCCN(C)C3)c3ccccc3n2)cc1 (stereo unspecified)	88.2

The record that follows has no inhibition shown yet.
Note to self: inhibition recorded for "CCCOc1ccc(-c2cc(OCCN3CCCCCC3)c3ccccc3n2)cc1" was 86

* * *

Target: Quinolone resistance protein NorA (Staphylococcus aureus)
Test: Inhibition of NorA in Staphylococcus aureus 1199B harboring grlA A116E mutant assessed as inhibition of ethidium bromide efflux measured for 5 mins by fluorometric analysis
measured-parameter: pIC50
Give bare numbers, as −log10 of the molar value.

CCCOc1ccc(-c2cc(OC(C)CN(C)C)c3ccccc3n2)cc1 (racemic)	4.88
CCCOc1ccc(-c2cc(OCCN(CC)CC)c3ccccc3n2)cc1	5.05

pIC50 on Quinolone resistance protein NorA (Staphylococcus aureus) for "CCCOc1ccc(-c2cc(OCCN3CCNCC3)c3ccccc3n2)cc1" is 5.08

* * *

Kindly state IC50 for each of the entries shown.
Target: Quinolone resistance protein NorA (Staphylococcus aureus)
Assay: Inhibition of NorA in Staphylococcus aureus 1199B harboring grlA A116E mutant assessed as inhibition of ethidium bromide efflux measured for 5 mins by fluorometric analysis
One number for each entry, in µM.

Before answering, review these 3 worked examples.
CCCOc1ccc(-c2cc(OCCN(C)C)c3ccccc3n2)cc1	9.9
CCCOc1ccc(-c2cc(OCCN3CCOCC3)c3ccccc3n2)cc1	10.7
CCCOc1ccc(-c2cc(OC3CCCN(C)C3)c3ccccc3n2)cc1 (stereo not drawn)	8

Parameters: items (list). Returns: IC50 for each item.
1. CCCOc1ccc(-c2cc(OCCN3CCCC3)c3ccccc3n2)cc1
2. CCCOc1ccc(-c2cc(OCC(C)N(C)C)c3ccccc3n2)cc1.Cl (stereo not drawn)
3. CCCOc1ccc(-c2cc(OCCN)c3ccccc3n2)cc1
4. CCCOc1ccc(-c2cc(OCCN3CCN(C)CC3)c3ccccc3n2)cc1

[9.3, 7.5, 9.3, 9.7]

Note to self: IC50 recorded for "CCCOc1ccc(-c2cc(OCCN(C(C)C)C(C)C)c3ccccc3n2)cc1" was 8.3

// provenance: ChEMBL document CHEMBL2384986
